Target: UGT85A3 (Arabidopsis thaliana)
Sequence (Q9LMF1 1-488): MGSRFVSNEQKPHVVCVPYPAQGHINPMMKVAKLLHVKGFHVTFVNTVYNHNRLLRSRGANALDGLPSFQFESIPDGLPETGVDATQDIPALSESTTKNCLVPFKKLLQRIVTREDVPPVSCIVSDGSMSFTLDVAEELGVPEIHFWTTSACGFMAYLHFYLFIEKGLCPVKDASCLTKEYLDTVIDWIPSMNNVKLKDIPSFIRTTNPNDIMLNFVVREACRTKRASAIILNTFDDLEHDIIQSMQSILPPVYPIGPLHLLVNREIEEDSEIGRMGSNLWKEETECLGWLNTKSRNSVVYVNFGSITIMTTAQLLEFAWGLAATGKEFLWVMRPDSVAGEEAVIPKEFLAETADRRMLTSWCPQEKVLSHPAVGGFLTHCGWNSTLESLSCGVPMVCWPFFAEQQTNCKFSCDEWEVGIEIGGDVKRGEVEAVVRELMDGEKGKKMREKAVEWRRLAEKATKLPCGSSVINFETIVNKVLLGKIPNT
Assay: Glycosylation activity of purified UGT85A3 on sugar acceptor substrates, LC-MS
Type: biochemical
Set-up: made in house; host or cells: E. coli BL21(DE3)
Details: 2 mM UDP-glucose, 1.5 mM sugar acceptor substrate, pH 7.5, 30° C., 1 hour
ASSAY_READOUT: glycosylation activity of UGT85A3 on the sugar acceptor (product detected by LC-MS)

CC(C)=CCCC(C)CCO (stereo not shown) :: glycosylation activity
C=CC(C)(O)CCC=C(C)CCC=C(C)C (stereo not shown) :: glycosylation activity

These measurements were taken from patent US9518282B2.
